Taken from paper PMC10397247.

experimental.system: T1, 4H3855-bA
T1 chain: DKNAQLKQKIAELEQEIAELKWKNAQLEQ
measurement.protocol: two-hybrid library CCNG1;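 also: natural log of median RNA to DNA barcode read ratio; higher means stronger binding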
Decide by interaction score: equal to or exceeding -0.5 means fulfilled, less means not fulfilled.

# count of solved cases: 4
binder="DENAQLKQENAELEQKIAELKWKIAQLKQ [4H1710-bA]" discrete_label=fulfilled
binder="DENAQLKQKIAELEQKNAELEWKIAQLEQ [4H1845-bA]" discrete_label="not fulfilled"
binder="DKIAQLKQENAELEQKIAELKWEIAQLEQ [4H2729-bA]" discrete_label=fulfilled
binder="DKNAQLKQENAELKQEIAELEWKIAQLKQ [4H3782-bA]" discrete_label=fulfilled

For this binder, is measured interaction score -0.5 or higher? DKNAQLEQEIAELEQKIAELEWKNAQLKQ [4H3112-bA]
fulfilled

For this binder, is measured interaction score -0.5 or higher? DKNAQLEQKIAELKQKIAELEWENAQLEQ [4H3427-bA]
not fulfilled
